read-out: CYP4A11 (gene 1579); test: LTEA_HepaRG_CYP4A11: Life Technologies and Expression Analysis (LTEA) Assay for CYP4A11 using HepaRG (AID 2283486); settings: mRNA level, 48 h; actives raise or lower the signal
Activity calls are given as the source filed them. The calls were made as follows: active = hit-call score of the fitted dose curve at least 0.9, where 1 is the maximum; inactive = score below 0.9.
Select the correct class. Options are active, inactive and nothing else.

Recorded results for 2 compounds are shown here.
Query: Hey, what did the test say about CCOC1Oc2ccc(OS(C)(=O)=O)cc2C1(C)C (stereo unspecified) ?
Reply: active

Query: Hey, what did the test say about O=C(NC(=O)c1c(F)cccc1F)Nc1ccc(OC(F)(F)C(F)OC(F)(F)F)c(Cl)c1 (stereo unspecified) ?
Reply: inactive

More entries:
Query: Hey, what did the test say about N#Cc1c(Cl)c(Cl)c(Cl)c(C#N)c1Cl ?
Reply: active

Query: Hey, what did the test say about COP(=S)(OC)Oc1ccc([N+](=O)[O-])cc1 ?
Reply: inactive

Query: Hey, what did the test say about CN1CSC(=S)N(C)C1 ?
Reply: inactive

Query: Hey, what did the test say about CCC(C)Nc1c([N+](=O)[O-])cc(C(C)(C)C)cc1[N+](=O)[O-] (stereo unspecified) ?
Reply: active

Query: Hey, what did the test say about CNC(=O)Oc1ccccc1OC(C)C ?
Reply: inactive

Query: Hey, what did the test say about Cc1[nH]c(=O)n(C(C)(C)C)c(=O)c1Cl ?
Reply: inactive

Query: Hey, what did the test say about CCOCN(C(=O)CCl)c1c(C)cccc1CC ?
Reply: active

Query: Hey, what did the test say about CNC(=O)Oc1cccc(N=CN(C)C)c1 ?
Reply: inactive
